Values were extracted from ChEMBL document CHEMBL2346663.

TEST_SYSTEM: Myeloperoxidase (Homo sapiens, UniProt P05164)
Sequence (P05164 165-273 limits assumed): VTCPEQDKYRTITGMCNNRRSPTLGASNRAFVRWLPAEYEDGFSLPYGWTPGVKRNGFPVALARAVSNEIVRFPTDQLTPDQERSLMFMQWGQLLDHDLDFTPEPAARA
Sequence (P05164 279-745 limits assumed): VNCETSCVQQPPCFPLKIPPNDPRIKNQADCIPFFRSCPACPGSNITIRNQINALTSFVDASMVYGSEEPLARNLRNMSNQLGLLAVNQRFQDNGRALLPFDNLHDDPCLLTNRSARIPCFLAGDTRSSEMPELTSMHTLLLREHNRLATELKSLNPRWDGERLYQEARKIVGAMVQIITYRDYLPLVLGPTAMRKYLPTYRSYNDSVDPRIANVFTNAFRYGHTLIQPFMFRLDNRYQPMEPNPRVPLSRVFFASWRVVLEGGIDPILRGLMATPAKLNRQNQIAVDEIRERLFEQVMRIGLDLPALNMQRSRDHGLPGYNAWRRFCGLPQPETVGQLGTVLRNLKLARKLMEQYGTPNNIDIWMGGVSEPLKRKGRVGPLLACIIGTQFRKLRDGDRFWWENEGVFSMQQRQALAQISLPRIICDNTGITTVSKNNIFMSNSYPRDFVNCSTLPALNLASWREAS
TEST: Inhibition of human recombinant MPO-mediated taurine chlorination after 5 mins by microplate assay
Format: single protein
RECORDED_CONDITIONS: read-out: IC50
// class assignment uses IC50 with these ranges: one = under 20 nM, two = from 20 nM up to 60 nM, three = 60 nM and over

Example results:
sample_smiles=NC(=O)CCc1c[nH]c2c(F)cccc12 group=three
sample_smiles=NC(=O)CCCc1c[nH]c2ccc(F)cc12 group=one
sample_smiles=CCSCCCc1c[nH]c2ccc(F)cc12 group=three
sample_smiles=N#CCCCc1c[nH]c2ccc(F)cc12 group=three
sample_smiles=NC(=O)CCc1c[nH]c2ccc(F)cc12 group=three
sample_smiles=NCCSCCCc1c[nH]c2ccc(F)cc12 group=two

Now examine the next entry.
Lab note: sort `OCCNCCCc1c[nH]c2ccc(F)cc12` into the matching IC50 band. one
